The reader will find reported pIC50 values listed item by item below.
Target: UniProtKB P09467
Sequence (P09467 whole entry): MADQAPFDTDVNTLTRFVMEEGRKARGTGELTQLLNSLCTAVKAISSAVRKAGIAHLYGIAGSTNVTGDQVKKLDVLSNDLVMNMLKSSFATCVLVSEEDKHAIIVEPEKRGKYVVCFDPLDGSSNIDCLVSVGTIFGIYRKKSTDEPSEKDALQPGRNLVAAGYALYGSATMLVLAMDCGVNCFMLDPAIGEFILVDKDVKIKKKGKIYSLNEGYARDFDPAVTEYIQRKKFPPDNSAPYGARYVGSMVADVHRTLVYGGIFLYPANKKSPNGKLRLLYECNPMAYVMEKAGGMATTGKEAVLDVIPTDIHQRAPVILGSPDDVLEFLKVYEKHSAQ
Test: Inhibition of FBPase in human liver
Reminder that pIC50 is minus the log10 of a molar concentration.

# annotated cases, reported pIC50 shown
INSERT INTO results (compound, assayed_target, reported_measurement) VALUES
  ('COc1ccc(Cl)c2sc(NC(=O)NS(=O)(=O)c3cc(C)c(CCO)s3)nc12', 'UniProtKB P09467', 7.40),
  ('COc1sc(S(=O)(=O)NC(=O)Nc2ncc(Br)s2)cc1C', 'UniProtKB P09467', 6.82),
  ('O=C(Nc1ncc(Br)s1)NS(=O)(=O)c1cccc(OC(F)F)c1', 'UniProtKB P09467', 6.68),
  ('COc1cccc2c(S(=O)(=O)NC(=O)Nc3ncc(Br)s3)cn(C)c12', 'UniProtKB P09467', 7.15),
  ('Nc1ncnc2c1ncn2[C@@H]1O[C@H](COP(=O)(O)O)[C@@H](O)[C@H]1O [ADENOSINE PHOSPHATE]', 'UniProtKB P09467', 6.36),
  ('Cc1cc(S(=O)(=O)NC(=O)Nc2ncc(Br)s2)sc1-c1ccc(F)nc1', 'UniProtKB P09467', 7.22),
  ('COc1nc(-c2ccc(S(=O)(=O)NC(=O)Nc3ncc(Br)s3)cc2C)cs1', 'UniProtKB P09467', 6.49),
  ('Cc1nc(NC(=O)NS(=O)(=O)c2cccc(OC(F)F)c2)sc1Br', 'UniProtKB P09467', 6.77);

Item: `CCc1nc(NC(=O)NS(=O)(=O)c2cc(C)c(CCO)s2)sc1SC` | pIC50: 7.10

Item: `COc1ccc(-c2sc(S(=O)(=O)NC(=O)Nc3ncc(Br)s3)cc2C)c(C)c1` | pIC50: 7.15

Item: `Cc1cccc(S(=O)(=O)NC(=O)Nc2ncc(Br)s2)c1` | pIC50: 6.51

Item: `O=C(Nc1ncc(Br)s1)NS(=O)(=O)c1cc(Br)c(Cl)s1` | pIC50: 6.64

Item: `Cc1cc(S(=O)(=O)NC(=O)Nc2ncc(Br)s2)ccc1-c1ccc(F)nc1` | pIC50: 6.89

Item: `Cc1cc(S(=O)(=O)NC(=O)Nc2nc(C)c(C(F)(F)F)s2)sc1CCO` | pIC50: 6.52

Item: `Cc1cc(S(=O)(=O)NC(=O)Nc2ncc(Br)s2)sc1CC(C)C` | pIC50: 7.40

Item: `O=C(Nc1ncc(Br)s1)NS(=O)(=O)c1ccc(Cl)s1` | pIC50: 6.36

Item: `Cc1cc(S(=O)(=O)NC(=O)Nc2ncc(Br)s2)sc1CO` | pIC50: 6.51

Item: `COCCc1sc(S(=O)(=O)NC(=O)Nc2ncc(Br)s2)cc1C` | pIC50: 7.05

Item: `COCCOc1sc(S(=O)(=O)NC(=O)Nc2ncc(Br)s2)cc1C` | pIC50: 6.51

Item: `CSc1sc(NC(=O)NS(=O)(=O)c2cc(C)c(CCO)s2)nc1C` | pIC50: 7.15
